Test system: MDA-N
Assay: NCI tumour cell line growth inhibition, 48 h

[
  {
    "compound": "CC12OC1(C)C1C(=O)OCC1C2=O (stereo unspecified)",
    "TGI": "> 100 µM"
  },
  {
    "compound": "CC1CC(C)CC(NC2=NCCO2)C1 (stereo unspecified)",
    "TGI": "> 100 µM"
  },
  {
    "compound": "CN(C)c1ccc(C(=O)NCCCCCCC(=O)NO)cc1",
    "TGI": "0.908 µM"
  },
  {
    "compound": "CC(C)(C)C1CCC2c3c([nH]c4ccccc34)C3C(=O)N(c4cccc([N+](=O)[O-])c4)C(=O)C3C2C1 (stereo unspecified)",
    "TGI": "45.7 µM"
  },
  {
    "compound": "Clc1ccccc1/C=C\\C1(c2ccccc2)OCCO1",
    "TGI": "30.2 µM"
  },
  {
    "compound": "O=c1c2cc([N+](=O)[O-])ccc2[nH]n1Cc1ccccn1",
    "TGI": "> 100 µM"
  }
]
